Hey, just so you know, these numbers are from patent US20250376535A1.

biological target: T1, EGFR Fc (human, UniProt P00533 25-645); assay: blocking ELISA, EGFR-hFc + VHH at 1.6 nM on coated EGF-mFc
T1 construct: also called EGFR-hFc; recombinant human EGFR-Fc
hey, just use true (1) if measured OD450 is less than 0.9, otherwise false (0)

Q: Consider pgEG-SX6 (VHH, not shown: small tags and cut ends) VHH: QVQLVESGGGTVQAGGSLRLSCVASGMREDIFDMGWYRQAPGLQRELVATITSGGSTDYADSVKGRFTISRDNTENTLNLQMNMLKPEDTAVYYCNALYFPPSGGRSSEFWGQGTLVTVSS . Does its OD450 lie strictly below 0.9?
Result: false (0)

Q: Threshold test, OD450 < 0.9: pgEG5 (VHH, not shown: small tags and cut ends) VHH: QVQLVESGGGLVQPGGSLRLSCTASHNIFSDNAMAWSRQAPGAQRELVARIATGGNTYYPDSVKGRFTISRDNAKNTVYLQMNNLTPDDTAVYYCYAERWTGLEYSRTYWGQGTQVTVSS
Result: false (0)

Q: Decide: OD450 of pgEG-SX22 (VHH, not shown: small tags and cut ends) VHH: QVQLVESGGGLVQAGGSLRVSCAVSGGALSAYAMAWFRQAPGKEREFVAGLNWGGDETYYADSAKGRFTISKDNAKNTVSLQMNSLEPEDTAVYYCGGRPGPLLSRATGYKYWGQGTQVTVSS strictly below 0.9?
Result: true (1)

Q: Please let me know if pgEG-SX3 (VHH, not shown: small tags and cut ends) VHH: QVQLVESGGGLVQAGGSLRLSCVVYGSIFASTTMGWYRQAPGKQRELVATVYQSGTSVYADSVKGRFTASRDNAKKTVYLQMNSLKPEDTAVYYCHPRATDYWGRGTQVTVSS shows OD450 below 0.9.
Result: true (1)
